Just for reference, patent US9931327B2 is where these values come from.

Overview of reported IC50 across a group of compounds:
- Tested on: LPS-induced TNF-α release in peripheral blood mononuclear cells (PBMCs)
- Procedure Summary: In vitro determination of PDE4 inhibitory activity in the PBMCs assay (LPS-induced TNF-α release)
- Type: cell-based, human
- Cond: PBMC; human PBMCs, LPS 3 ng/ml, 18 hours, TNF-α by ELISA; read-out: PDE4 inhibition (IC50, 50% inhibition of LPS-induced TNF-α release)
Endpoint Name: IC50

1. CN(C)C(=O)c1cccc(CS(=O)(=O)N2CCS[C@H]2C(=O)O[C@@H](Cc2c(Cl)c[n+]([O-])cc2Cl)c2ccc(OC(F)F)c(OCC3CC3)c2)c1 [Compound 295] : 100 to 1000 pM
2. CNS(=O)(=O)c1ccc(S(=O)(=O)N2CCS[C@H]2C(=O)O[C@@H](Cc2c(Cl)c[n+]([O-])cc2Cl)c2ccc(OC(F)F)c(OCC3CC3)c2)cc1 [Compound 94] : < 100 pM
3. CNS(=O)(=O)c1ccc(S(=O)(=O)N2CCSCC2C(=O)O[C@@H](Cc2c(Cl)c[n+]([O-])cc2Cl)c2ccc(OC(F)F)c(OCC3CC3)c2)cc1 (stereo partly shown) [Compound 81] : 100 to 1000 pM
4. COc1ccc(S(=O)(=O)N2CCSC2C(=O)O[C@@H](Cc2c(Cl)c[n+]([O-])cc2Cl)c2ccc(OC(F)F)c(OCC3CC3)c2)cc1C(=O)N1CCN(C)CC1 (stereo partly shown) [Compound 127] : 100 to 1000 pM
5. CN(C)C(=O)c1cccc(C(=O)N2CCC[C@@H]2C(=O)O[C@@H](Cc2c(Cl)c[n+]([O-])cc2Cl)c2ccc(OC(F)F)c(OCC3CC3)c2)c1 [Compound 185] : 100 to 1000 pM
6. O=C(O[C@@H](Cc1c(Cl)c[n+]([O-])cc1Cl)c1ccc(OC(F)F)c(OCC2CC2)c1)C1SCCN1C(=O)c1cnco1 (stereo partly shown) [Compound 35] : < 100 pM
7. Nc1ccc(C(=O)N2CCSC2C(=O)O[C@@H](Cc2c(Cl)c[n+]([O-])cc2Cl)c2ccc(OC(F)F)c(OCC3CC3)c2)cc1 (stereo partly shown) [Compound 26] : 100 to 1000 pM
8. O=C(O[C@@H](Cc1c(Cl)c[n+]([O-])cc1Cl)c1ccc(OC(F)F)c(OCC2CC2)c1)C1SCCN1S(=O)(=O)c1ccccc1Cl (stereo partly shown) [Compound 70] : 100 to 1000 pM
9. N#Cc1ccc(S(=O)(=O)N2CCS[C@H]2C(=O)O[C@@H](Cc2c(Cl)c[n+]([O-])cc2Cl)c2ccc(OC(F)F)c(OCC3CC3)c2)cc1 [Compound 206] : < 100 pM
10. O=C(O[C@@H](Cc1c(Cl)c[n+]([O-])cc1Cl)c1ccc(OC(F)F)c(OCC2CC2)c1)[C@@H]1SCCN1S(=O)(=O)c1ccc(N2CCOCC2)nc1 [Compound 105] : 100 to 1000 pM
11. CN1CCN(C(=O)c2ccc(S(=O)(=O)N3CCSC3C(=O)O[C@@H](Cc3c(Cl)c[n+]([O-])cc3Cl)c3ccc(OC(F)F)c(OCC4CC4)c3)cc2)CC1 (stereo partly shown) [Compound 126] : 100 to 1000 pM
12. NC(=O)Nc1cccc(S(=O)(=O)N2CCS[C@H]2C(=O)O[C@@H](Cc2c(Cl)c[n+]([O-])cc2Cl)c2ccc(OC(F)F)c(OCC3CC3)c2)c1 [Compound 269] : < 100 pM
13. CN(C)C(=O)c1cccc(S(=O)(=O)N2CSC[C@H]2C(=O)O[C@@H](Cc2c(Cl)c[n+]([O-])cc2Cl)c2ccc(OC(F)F)c(OCC3CC3)c2)c1 [Compound 84] : < 100 pM
14. NCCc1ccc(C(=O)N2CCSC2C(=O)O[C@@H](Cc2c(Cl)c[n+]([O-])cc2Cl)c2ccc(OC(F)F)c(OCC3CC3)c2)cc1 (stereo partly shown) [Compound 22] : 100 to 1000 pM
15. O=C(O[C@@H](Cc1c(Cl)c[n+]([O-])cc1Cl)c1ccc(OC(F)F)c(OCC2CC2)c1)[C@@H]1SCCN1S(=O)(=O)c1cccc(CO)c1 [Compound 271] : < 100 pM
16. COc1ccc(S(=O)(=O)N2CCSC2C(=O)O[C@@H](Cc2c(Cl)c[n+]([O-])cc2Cl)c2ccc(OC(F)F)c(OCC3CC3)c2)cc1C(=O)N1CCOCC1 (stereo partly shown) [Compound 128] : < 100 pM
17. O=C(OCCN1CCOCC1)c1cccc(S(=O)(=O)N2CCSC2C(=O)O[C@@H](Cc2c(Cl)c[n+]([O-])cc2Cl)c2ccc(OC(F)F)c(OCC3CC3)c2)c1 (single isomer, unassigned) [Compound 133] : < 100 pM
18. CN1CCN(CCS(=O)(=O)N2CCS[C@H]2C(=O)O[C@@H](Cc2c(Cl)c[n+]([O-])cc2Cl)c2ccc(OC(F)F)c(OCC3CC3)c2)CC1 [Compound 288] : 100 to 1000 pM
19. O=C(O[C@@H](Cc1c(Cl)c[n+]([O-])cc1Cl)c1ccc(OC(F)F)c(OCC2CC2)c1)C1SCCN1S(=O)(=O)c1cccc(Cl)c1 (stereo partly shown) [Compound 63] : 100 to 1000 pM
20. NC(=O)c1ccc(C(=O)N2CCS[C@H]2C(=O)O[C@@H](Cc2c(Cl)c[n+]([O-])cc2Cl)c2ccc(OC(F)F)c(OCC3CC3)c2)cc1 [Compound 37] : < 100 pM
21. CN(C)C(=O)c1cccc(S(=O)(=O)N2CCC[C@@H](C(=O)O[C@@H](Cc3c(Cl)c[n+]([O-])cc3Cl)c3ccc(OC(F)F)c(OCC4CC4)c3)C2)c1 [Compound 228] : 100 to 1000 pM
22. Cc1cc(S(=O)(=O)N2CCS[C@H]2C(=O)O[C@@H](Cc2c(Cl)c[n+]([O-])cc2Cl)c2ccc(OC(F)F)c(OCC3CC3)c2)c(C)s1 [Compound 203] : 100 to 1000 pM
